- Measurement Target: Short transient receptor potential channel 4 (Mus musculus, UniProt Q9QUQ5)
- Sequence (Q9QUQ5 whole entry): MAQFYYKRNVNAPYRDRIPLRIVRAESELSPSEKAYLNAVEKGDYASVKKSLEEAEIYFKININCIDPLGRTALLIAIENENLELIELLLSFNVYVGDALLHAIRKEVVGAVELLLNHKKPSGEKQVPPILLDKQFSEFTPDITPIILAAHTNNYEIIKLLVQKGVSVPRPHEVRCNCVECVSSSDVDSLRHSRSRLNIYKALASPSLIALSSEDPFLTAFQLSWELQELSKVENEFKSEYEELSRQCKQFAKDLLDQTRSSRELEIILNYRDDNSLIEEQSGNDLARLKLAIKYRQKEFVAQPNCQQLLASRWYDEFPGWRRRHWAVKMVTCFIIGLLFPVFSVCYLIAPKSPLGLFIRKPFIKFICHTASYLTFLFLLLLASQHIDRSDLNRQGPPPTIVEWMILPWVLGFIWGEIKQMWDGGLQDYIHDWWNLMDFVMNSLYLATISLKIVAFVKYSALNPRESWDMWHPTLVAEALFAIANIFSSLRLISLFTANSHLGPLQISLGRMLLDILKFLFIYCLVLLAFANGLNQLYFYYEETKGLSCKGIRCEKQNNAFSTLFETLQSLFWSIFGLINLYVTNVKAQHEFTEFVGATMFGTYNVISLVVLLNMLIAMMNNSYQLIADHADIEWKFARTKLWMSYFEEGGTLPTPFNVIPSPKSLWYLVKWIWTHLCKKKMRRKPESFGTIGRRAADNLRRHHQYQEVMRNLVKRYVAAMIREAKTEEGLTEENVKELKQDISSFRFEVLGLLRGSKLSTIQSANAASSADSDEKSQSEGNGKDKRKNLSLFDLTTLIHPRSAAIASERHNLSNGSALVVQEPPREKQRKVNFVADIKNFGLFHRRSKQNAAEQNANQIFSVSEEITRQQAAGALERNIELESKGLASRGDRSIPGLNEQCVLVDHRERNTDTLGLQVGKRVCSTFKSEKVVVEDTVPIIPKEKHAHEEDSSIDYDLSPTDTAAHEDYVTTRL
- Test Method Notes: calcium entry via TRPC4 opening agents – cell-based, HEK293 TRPC4/mu-opioid, Fluo-4 calcium, dose response (AID 434937)
- Format: functional
Calls of active or inactive are those of the source.
Quantity: EC50

smiles_repr=COc1ccc(CN2CCC(N(CCc3ccccc3)Cc3ccccc3)CC2)c(OC)c1 measured="5.31 µM (active)"
smiles_repr=OCC1(CCc2ccccc2)CCN(Cc2cccn2-c2cccnc2)CC1 measured="0.149 µM (active)"
smiles_repr=C/C(=N/NC(=O)c1ccc(Cn2cccn2)o1)c1cccc(NC(=O)c2ccncc2)c1 measured="5.31 µM (active)"
smiles_repr=COc1ccc(C(=O)NC(=S)NNC(=O)c2c(-c3ccccc3)noc2C)cc1OC measured="6.68 µM (active)"
smiles_repr=Cc1cc(OCCNCCO)cc(C)c1Cl measured="0.841 µM (active)"
smiles_repr=CCOC(=O)C1(CCc2ccccc2)CCN(Cc2ccc(O)cc2)CC1 measured="5.31 µM (active)"
smiles_repr=CN(C)/C=C1\C(=O)N(c2ccc([N+](=O)[O-])cc2)N=C1c1ccccc1 measured="10.6 µM (active)"
smiles_repr=Cc1ccc(Sc2cc(C(=O)NCCN(C)C)c3ccccc3n2)cc1 measured="2.66 µM (active)"
smiles_repr=Cc1sc(NC(=O)c2ccccc2)c(C(=O)NCCN(C)C)c1C measured="3.35 µM (active)"

====

- Measurement Target: High affinity choline transporter 1 (Homo sapiens, UniProt Q9GZV3)
- Sequence (Q9GZV3 whole entry): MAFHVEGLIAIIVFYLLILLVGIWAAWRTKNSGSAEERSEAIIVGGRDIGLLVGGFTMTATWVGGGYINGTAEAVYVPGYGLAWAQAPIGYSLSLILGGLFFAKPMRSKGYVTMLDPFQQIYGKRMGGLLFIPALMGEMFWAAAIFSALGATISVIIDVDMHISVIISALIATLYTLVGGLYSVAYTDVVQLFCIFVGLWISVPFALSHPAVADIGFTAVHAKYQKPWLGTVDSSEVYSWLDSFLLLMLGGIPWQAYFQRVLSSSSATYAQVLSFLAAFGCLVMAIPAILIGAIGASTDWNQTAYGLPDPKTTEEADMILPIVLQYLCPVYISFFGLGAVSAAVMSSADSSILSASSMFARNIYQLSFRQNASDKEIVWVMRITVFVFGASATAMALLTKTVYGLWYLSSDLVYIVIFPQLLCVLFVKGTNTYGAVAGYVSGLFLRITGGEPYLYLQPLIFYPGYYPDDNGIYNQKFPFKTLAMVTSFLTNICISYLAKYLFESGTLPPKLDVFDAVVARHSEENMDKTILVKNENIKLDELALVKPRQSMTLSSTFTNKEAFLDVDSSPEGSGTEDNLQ
- Test Method Notes: human choline transporter blockers, potency – cell-based, 5-point CRC, membrane potential dye, dose response (AID 504840)
- Type: functional
Calls of active or inactive are those of the source.
Quantity: IC50

smiles_repr=CCOC(=O)N1CCN(C(=O)CCCn2c(=S)[nH]c3ccsc3c2=O)CC1 measured="12.3 µM (active)"
smiles_repr=CC(C)c1ccc(NC(=O)CSc2nc(=O)n(CCCN3CCOCC3)c3c2CCC3)cc1 measured="13.8 µM (active)"
smiles_repr=CC(C)c1nnc(NC(=O)c2nc(S(=O)(=O)Cc3ccc(F)cc3)ncc2Cl)s1 measured="6.08 µM (active)"
smiles_repr=CCOCCn1c(CN2CCN(c3ccc(F)cc3)CC2)nc2c1c(=O)n(C)c(=O)n2C measured="7.77 µM (active)"
smiles_repr=Cc1cc(NS(=O)(=O)c2ccc(NC(=O)COc3c(C)cc(Br)cc3C)cc2)no1 measured="13.2 µM (active)"

====

- Measurement Target: Protein skinhead-1 (Caenorhabditis elegans)
- Sequence (P34707 whole entry): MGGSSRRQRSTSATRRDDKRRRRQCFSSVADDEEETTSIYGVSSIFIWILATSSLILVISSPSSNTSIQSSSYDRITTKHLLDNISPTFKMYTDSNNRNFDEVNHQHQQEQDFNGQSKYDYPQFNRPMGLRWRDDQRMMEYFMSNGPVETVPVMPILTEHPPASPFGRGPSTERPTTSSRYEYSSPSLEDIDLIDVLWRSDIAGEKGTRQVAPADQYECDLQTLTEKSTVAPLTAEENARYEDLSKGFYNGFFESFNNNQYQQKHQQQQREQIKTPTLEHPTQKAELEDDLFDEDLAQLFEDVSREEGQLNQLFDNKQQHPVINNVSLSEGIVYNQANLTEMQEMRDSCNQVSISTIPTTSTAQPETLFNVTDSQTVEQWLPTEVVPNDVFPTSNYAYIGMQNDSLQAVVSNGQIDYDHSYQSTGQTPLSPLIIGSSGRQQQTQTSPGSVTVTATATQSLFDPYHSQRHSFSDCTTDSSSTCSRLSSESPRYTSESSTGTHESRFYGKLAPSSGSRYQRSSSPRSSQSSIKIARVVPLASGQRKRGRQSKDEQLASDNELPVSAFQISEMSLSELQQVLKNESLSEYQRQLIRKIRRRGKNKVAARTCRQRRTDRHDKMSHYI
- Type: functional
The source made the active and inactive calls.
The following molecules are shown together with reported IC50 values.
Quantity: IC50

molecule="CC(=O)/N=C1\\SC2CS(=O)(=O)CC2N1c1cccc(Cl)c1Cl (centres undefined)" measurement_target="Protein skinhead-1 (Caenorhabditis elegans)" measured="> 100 µM (inactive)"
molecule=Cc1onc(-c2ccccc2)c1C(=O)Nc1nc2c(s1)C(=O)CC(C)(C)C2 measurement_target="Protein skinhead-1 (Caenorhabditis elegans)" measured="> 100 µM (inactive)"
molecule=Fc1ccc(-c2csc(Nc3ccccn3)n2)cc1 measurement_target="Protein skinhead-1 (Caenorhabditis elegans)" measured="22.8 µM (active)"
molecule=CCOc1ccccc1C(=O)Nc1ccc(-n2nncc2C(C)(C)C)cc1 measurement_target="Protein skinhead-1 (Caenorhabditis elegans)" measured="> 100 µM (inactive)"
molecule=O=C(NC(=S)Nc1ccc(CN2CCCCC2)cc1)c1cc2ccccc2o1 measurement_target="Protein skinhead-1 (Caenorhabditis elegans)" measured="32.2 µM (active)"
molecule="CCN(CC)CCC(c1cc(OC)c(OC)c(OC)c1)c1c(OC)cc(OC)c2c(C)cc(=O)oc12 (centres undefined)" measurement_target="Protein skinhead-1 (Caenorhabditis elegans)" measured="> 100 µM (inactive)"
molecule="CC1(Cc2ccc(Cl)cc2)C(=O)Nc2ccc(-c3cccnc3)cc21 (centres undefined)" measurement_target="Protein skinhead-1 (Caenorhabditis elegans)" measured="19.5 µM (active)"
molecule=CCC(C)(C)c1nnc(NC(=O)CCC2CCCCC2)s1 measurement_target="Protein skinhead-1 (Caenorhabditis elegans)" measured="> 100 µM (inactive)"
molecule="O=C1NC2C(=CC(O)C(O)C2O)c2cc3c(c(O)c21)OCO3 (centres undefined)" measurement_target="Protein skinhead-1 (Caenorhabditis elegans)" measured="24 µM (active)"
